Recorded hMC4R PAM LANCE pEC50 Mean by entry
Target: hMC4R (Homo sapiens (Human), UniProt P32245)
Sequence (P32245 whole entry): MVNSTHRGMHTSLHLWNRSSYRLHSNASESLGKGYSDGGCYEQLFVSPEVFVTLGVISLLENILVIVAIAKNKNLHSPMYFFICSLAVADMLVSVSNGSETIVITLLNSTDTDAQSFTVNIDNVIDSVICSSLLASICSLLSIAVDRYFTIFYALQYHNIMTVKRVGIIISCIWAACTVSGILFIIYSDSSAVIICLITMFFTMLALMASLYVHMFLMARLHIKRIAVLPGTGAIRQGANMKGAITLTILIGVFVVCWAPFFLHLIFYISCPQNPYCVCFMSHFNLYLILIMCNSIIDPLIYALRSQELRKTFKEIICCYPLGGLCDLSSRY
Test: LANCE cAMP assay, hMC4R PAM
Format: cell-based
Conditions: HEK293 cells stably expressing the hMC4R; α-MSH at an EC20 dose
I'd appreciate a reply containing only the number, no unit.

Use these answered entries as a reference point.
COC(=O)c1[nH]c2ccc(Cl)cc2c1NC(=O)CN1CCC(c2ccccc2)CC1 [Example 4]: 6.5
CC(C)=C1CCN(CC(=O)Nc2c(C(=O)C3CC3)[nH]c3ccccc23)CC1 [Example 50]: 6.1
COC(=O)c1[nH]c2ccc(Br)cc2c1NC(=O)CN1CCN(c2cccc(OC)c2)C(C)C1 (stereo not drawn) [Example 13]: 6.3

// hMC4R PAM LANCE pEC50 Mean value for COC(=O)c1[nH]c2ccccc2c1NC(=O)CN1CCC(Oc2ccccc2)CC1 [Example 25] : 6

// hMC4R PAM LANCE pEC50 Mean value for CC(=O)c1[nH]c2ccccc2c1NC(=O)CN1CCC(OC2CCCCC2)CC1 [Example 77] : 5.8

// hMC4R PAM LANCE pEC50 Mean value for CC1(C)CCCN(CC(=O)Nc2c(C(=O)C3CC3)[nH]c3ccc(N4CCOCC4)cc23)C1 [Example 53] : 5.7
